# System: 8305C human thyroid carcinoma cell line
# experiment.notes: In vitro cytotoxicity / antiproliferative effect, cell count after 72 h
# Assay type: cell-based
# assay.conditions: Homo sapiens; 8305C cells, 72 h drug exposure, cell proliferation vs vehicle controls
measurement.label: IC50 (nM)
Give a bare numeral; the unit nM is implied.

Entry COc1ccc(Br)cc1CCc1c(F)cccc1C1=NCCN1 — recorded IC50 = 7670
